- system_tested: LYPLA2 (Mus musculus, UniProt Q9WTL7)
- Construct: a complex proteome endogenously expressing LYPLA1/2 was incubated with test compound; from tissue; host or cells: mouse brain, membrane fraction
- Sequence (Q9WTL7 whole entry): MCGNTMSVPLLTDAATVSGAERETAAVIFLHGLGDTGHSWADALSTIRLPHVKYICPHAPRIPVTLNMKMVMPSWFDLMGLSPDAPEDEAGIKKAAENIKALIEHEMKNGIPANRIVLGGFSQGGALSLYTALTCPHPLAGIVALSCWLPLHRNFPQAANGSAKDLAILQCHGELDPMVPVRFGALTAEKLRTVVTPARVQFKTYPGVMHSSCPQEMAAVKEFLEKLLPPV
- assay: Gel-based competitive ABPP in vitro, mouse brain membrane proteome
- Assay type: biochemical
- experimental_setup: 10 μM compound, 30 min, one replicate; read-out: LYPLA2 % INH 10 μM
metric: inhibition at 10 µM (%)

Guide cases for inhibition at 10 µM, answers given:
O=C(ON1C(=O)C2CN(C(=O)N3CCCCC3)CCN2C1=O)N1CCC(CCc2ccc(Cl)cc2)CC1 (centres unmarked)    100
O=C(ON1C(=O)C2CN(C(=O)c3ccc(F)c([N+](=O)[O-])c3)CCN2C1=O)N1CCC(CCc2ccc(Cl)cc2)CC1 (centres unmarked)    100
CC(C)(C)CC(=O)N1CCN2C(=O)N(OC(=O)N3CCC(CCc4ccc(Cl)cc4)CC3)C(=O)C2C1 (centres unmarked)    100

A. O=C(ON1C(=O)C2CN(C(=O)N3CCCC3)CCN2C1=O)N1CCC(CCc2ccc(Cl)cc2)CC1 (centres unmarked)
B. CC(C)(C)OC(=O)N1CCN2C(=O)N(OC(=O)N3CCN(CCc4ccccc4)CC3)C(=O)C2C1 (centres unmarked)
Please indicate which entry, A or B , has the lower recorded inhibition at 10 µM value. Let me know the label of the one you choose.
B
